Catalogue of compounds with associated half-life
# Test Method Notes: Pharmacokinetics after oral gavage in rats (plasma, HPLC)
# Format: in vivo, Sprague Dawley rats
# Applied Conditions: male, Sprague Dawley, rat, po, 20 mg/kg, n = 3
// return numeric value only (unit: h, not printed)

- Compound: "CC1(C)[C@@H](O[C@H]2O[C@H](C(=O)O)[C@@H](O)[C@H](O)[C@H]2O[C@@H]2O[C@H](C(=O)O)[C@@H](O)[C@H](O)[C@H]2O)CC[C@]2(C)[C@H]3C(=O)C=C4[C@H]5C[C@@](C)(C(=O)O)CC[C@]5(C)CC[C@@]4(C)[C@]3(C)CC[C@@H]12 [MAGN, magnesium isoglycyrrhizinate]"
  half-life (h): 23.7

Here is the next item to consider.
Any idea what its half-life is? The compound is CC1(C)[C@@H](O[C@H]2O[C@H](C(=O)O)[C@@H](O)[C@H](O)[C@H]2O[C@@H]2O[C@H](C(=O)O)[C@@H](O)[C@H](O)[C@H]2O)CC[C@]2(C)[C@H]3C(=O)C=C4[C@@H]5C[C@@](C)(C(=O)O)CC[C@]5(C)CC[C@@]4(C)[C@]3(C)CC[C@@H]12 [MONO, monoammonium glycyrrhizinate] 10.8

These entries and their values trace back to paper PMC12029898.
